systemTested: RORc ligand binding domain (Homo sapiens, UniProt P51449)
Construct: host or cells: E. coli
Sequence (P51449 269-508 limits assumed, species assumed): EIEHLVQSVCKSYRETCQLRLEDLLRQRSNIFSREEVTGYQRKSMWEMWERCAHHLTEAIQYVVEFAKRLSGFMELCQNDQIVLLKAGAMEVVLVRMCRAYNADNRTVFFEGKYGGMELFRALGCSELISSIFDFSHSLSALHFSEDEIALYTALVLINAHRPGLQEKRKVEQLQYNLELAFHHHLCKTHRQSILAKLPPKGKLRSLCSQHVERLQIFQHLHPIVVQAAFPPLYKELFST
assayMethodText: In Vitro RORc Ligand Binding Assay (25-[3H]hydroxycholesterol radioligand filtration)
conditionLabel: read-out: RORc IC50
pIC50: −log10 of the molar value.
Note that class boundaries on pIC50 are 1 = under 6, 2 = from 6 up to 7, 3 = 7 and over

Would you please look over these solved cases?
# molecule, assignedCategory
measured = [
    ("C[C@H]1CCC(c2ccccc2)S(=O)(=O)N1Cc1ccc(C(=O)NC2CCC(O)C2)cc1 (single isomer, unassigned) [Example 409]", 1),
    ("C[C@H]1CCC(c2ccccc2)S(=O)(=O)N1Cc1ccc(N2CCn3c(cnc3CO)C2)cc1F (stereo partly drawn)", 2),
]

Q: For COC(=O)C1(n2cnnc2)CCN(c2ccc(CN3[C@@H](C)CCC(c4ccccc4)S3(=O)=O)c(F)c2)CC1 (stereo partly drawn) [Example 427] , which pIC50 bin applies?
Ans: 2

Q: Category lookup for the molecule C[C@H]1CCC(c2ccccc2)S(=O)(=O)N1Cc1ccc(C(=O)NC2CCC(O)C2)cc1 (single isomer, unassigned) [Example 408]
Ans: 1

Q: Just checking, what class would you give C[C@H]1CCC(c2ccccc2)S(=O)(=O)N1Cc1ccc(N2CCC(n3ncnn3)CC2)cc1 (stereo partly drawn) here?
Ans: 2

Q: Into which category would you place C[C@H]1CCC(c2ccccc2)S(=O)(=O)N1Cc1ccc(N2C[C@@H]3[C@H](C2)[C@H]3n2cnnc2)cc1F (stereo partly drawn) ?
Ans: 3
